Listed next: entries and their corresponding MIC.
# Test system: Nicrosporum Canis ATCC 11621
# Test Protocol: MIC mildews, Microsporum canis (Table 2)
# Type: cell-based
# Condition Parameters: Microsporum canis, ATCC11621, +10% serum; Sabourand broth; read-out: MIC

# Compound, MIC / µg/mL
rows = [
    ("CCCCCCCCCC[N+](C)(C)CCNC(=O)C12CC3CC(CC(C3)C1)C2", 20),
    ("CCCCCCCCCC[N+](C)(C)CCOC(=O)C12CC3CC(CC(C3)C1)C2 (single isomer, unassigned)", 10),
    ("CCCCCCCCCCCC[N+](CC)(CC)CCOC(=O)C12CC3CC(CC(C3)C1)C2", 50),
    ("CCCCCCCCCCC[N+](CC)(CC)CCNC(=O)C12CC3CC(CC(C3)C1)C2", 20),
    ("CCCCCCCCCCCC[N+](CC)(CC)CCNC(=O)C12CC3CC(CC(C3)C1)C2", 20),
    ("CCCCCCCCCCCC[N+](C)(C)CCNC(=O)C12CC3CC(CC(C3)C1)C2", 20),
    ("CCCCCCCCCCC[N+](C)(C)CCOC(=O)C12CC3CC(CC(C3)C1)C2", 10),
    ("CCCCCCCCCC[N+](CC)(CC)CCOC(=O)C12CC3CC(CC(C3)C1)C2", 20),
    ("CCCCCCCCCCCC[N+](C)(C)CCOC(=O)C12CC3CC(CC(C3)C1)C2", 20),
]
